Protein target, amino acids: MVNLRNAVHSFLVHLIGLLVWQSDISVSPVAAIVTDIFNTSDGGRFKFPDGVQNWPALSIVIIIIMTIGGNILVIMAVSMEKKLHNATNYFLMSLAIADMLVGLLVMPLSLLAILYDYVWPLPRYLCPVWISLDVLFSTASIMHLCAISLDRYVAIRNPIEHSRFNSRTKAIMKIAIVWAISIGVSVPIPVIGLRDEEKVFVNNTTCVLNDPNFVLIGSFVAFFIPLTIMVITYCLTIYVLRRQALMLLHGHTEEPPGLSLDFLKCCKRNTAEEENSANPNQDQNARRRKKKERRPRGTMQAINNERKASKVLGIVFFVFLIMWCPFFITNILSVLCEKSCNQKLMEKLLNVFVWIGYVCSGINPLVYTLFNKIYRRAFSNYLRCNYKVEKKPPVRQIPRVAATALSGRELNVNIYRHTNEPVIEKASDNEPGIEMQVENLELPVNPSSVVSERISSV
pKi: −log10 of the molar value.
Experimental readout: pKi

// known answers, use as guide
Record smiles: O=C(Nc1ccc(OCc2ccccn2)nc1)N1CCc2cc(C(F)(F)F)ccc21
Experimental readout: pKi
Obs value: 8.20
//
Record smiles: Cc1cc2c(cc1C(F)(F)F)N(C(=O)Nc1ccc(OCc3ncccc3C)nc1)CC2
Experimental readout: pKi
Obs value: 8.40

P. Cc1cc2c(cc1C(F)(F)F)N(C(=O)Nc1ccc(COc3ccccn3)nc1)CC2
Q. O=C(Nc1ccc(OCc2ccccn2)nc1)N1CCc2cc(Br)ccc21
R. Cc1cc2c(cc1C(F)(F)F)N(C(=O)Nc1ccc(OCc3ccccn3)nc1)CC2
S. Cc1cc2c(cc1C(F)(F)F)N(C(=O)Nc1ccc(OCCc3ccccn3)nc1)CC2
T. Cc1cc2c(cc1Cl)N(C(=O)Nc1ccc(OCc3ccccn3)nc1)CC2
Input line: Sort by pKi, descending. Hello, could you send the labels back in the order asked? Thank you.
Output line: R, T, P, S, Q

* * *

- Tested on: Rattus norvegicus
- Assay name: Percent reversal of mCPP induced hypolocomotion after peroral administration at 5 mg/kg in rat
- Type: functional
- Recorded conditions: route oral
Experimental readout: Reversal (%)
Form entry: value (%) — number only.

Use these answered entries as a reference point.
Record smiles: Cc1cc2c(cc1Cl)N(C(=O)Nc1ccc(OCc3ccccn3)nc1)CC2
Reversal, %: 41
--
Record smiles: Cc1cc2c(cc1C(F)(F)F)N(C(=O)Nc1ccc(OCc3ccccn3)cc1)CC2
Reversal, %: 84
--
Record smiles: Cc1cc2c(cc1Cl)N(C(=O)Nc1ccc(OCc3nccs3)nc1)CC2
Reversal, %: 2

Moving on to another compound below.
Input line: Dear colleague, I am looking for the recorded Reversal of the following compound: Cc1cc2c(cc1C(F)(F)F)N(C(=O)Nc1ccc(OCc3cnccn3)nc1)CC2
Output line: 58

* * *

- Subject of test: Serotonin receptor (2b and 2c) (Homo sapiens) (UniProt P41595+P28335)
- Assay name: Selectivity at serotonin 5-HT 2C receptor compared to serotonin 5-HT 2B receptor
- Type: protein assay
Experimental readout: Selectivity

Record smiles: Cc1cc2c(cc1C(F)(F)F)N(C(=O)Nc1ccc(OCc3cncn3C)nc1)CC2
Selectivity: 2

Record smiles: Cc1cc2c(cc1C(F)(F)F)N(C(=O)Nc1ccc(OCc3ncccc3C)nc1)CC2
Selectivity: 4

Record smiles: Cc1cc2c(cc1Cl)N(C(=O)Nc1ccc(OCc3nccn3C)nc1)CC2
Selectivity: 2.5

a. O=C(Nc1ccc(OCc2ccccn2)nc1)N1CCc2cc(C(F)(F)F)ccc21
b. Cc1cc2c(cc1C(F)(F)F)N(C(=O)Nc1ccc(CCc3ccccn3)nc1)CC2
c. Cc1cc2c(cc1C(F)(F)F)N(C(=O)Nc1ccc(COc3ccccn3)nc1)CC2
Input line: List by increasing Selectivity. Returns: the labels arranged in the requested order.
Output line: b, c, a
(b: 6, c: 40, a: 60)

A. Cc1cc2c(cc1Cl)N(C(=O)Nc1ccc(OCc3ccncc3)nc1)CC2
B. Cc1cc2c(cc1C(F)(F)F)N(C(=O)Nc1ccc(OCCc3ccccn3)nc1)CC2
C. O=C(Nc1ccc(OCc2ccccn2)nc1)N1CCc2cc(Cl)ccc21
D. Cc1cc2c(cc1C(F)(F)F)N(C(=O)Nc1ccc(OCc3ccccn3)nn1)CC2
Input line: Put these in order: smallest Selectivity first, largest last. Answer with the labels in sequence, matching the requested order.
Output line: B, A, D, C
(B: 2, A: 6, D: 15, C: 30)

* * *

Entries below carry reported Ki on 5-hydroxytryptamine receptor 2A (Homo sapiens).
Sequence (P28223 whole entry): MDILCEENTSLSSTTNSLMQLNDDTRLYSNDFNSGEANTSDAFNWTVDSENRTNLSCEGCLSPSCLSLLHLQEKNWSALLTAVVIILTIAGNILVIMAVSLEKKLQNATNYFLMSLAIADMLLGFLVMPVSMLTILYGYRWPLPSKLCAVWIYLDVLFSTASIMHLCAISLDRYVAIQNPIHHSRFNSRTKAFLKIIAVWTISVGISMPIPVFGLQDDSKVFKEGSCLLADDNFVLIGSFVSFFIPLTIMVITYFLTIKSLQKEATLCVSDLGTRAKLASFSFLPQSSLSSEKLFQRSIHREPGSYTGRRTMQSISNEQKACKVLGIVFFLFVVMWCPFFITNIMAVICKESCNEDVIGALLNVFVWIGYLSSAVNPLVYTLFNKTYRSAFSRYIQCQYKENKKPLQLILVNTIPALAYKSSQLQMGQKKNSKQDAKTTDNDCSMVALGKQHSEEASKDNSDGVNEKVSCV
Experimental readout: Ki (nM)

Record smiles: Cc1cc2c(cc1Cl)N(C(=O)Nc1ccc(OCc3nccn3C)nc1)CC2
Subject of test: 5-hydroxytryptamine receptor 2A (Homo sapiens)
Unit tag: nM
Obs value: 251
//
Record smiles: O=C(Nc1ccc(OCc2ccccn2)nc1)N1CCc2cc(Br)ccc21
Subject of test: 5-hydroxytryptamine receptor 2A (Homo sapiens)
Unit tag: nM
Obs value: 2510
//
Record smiles: Cc1cc2c(cc1C(F)(F)F)N(C(=O)Nc1ccc(OCc3ccccn3)cc1)CC2
Subject of test: 5-hydroxytryptamine receptor 2A (Homo sapiens)
Unit tag: nM
Obs value: 398
//
Record smiles: Cc1cc2c(cc1C(F)(F)F)N(C(=O)Nc1cnc(OCc3ccccn3)c(C)c1)CC2
Subject of test: 5-hydroxytryptamine receptor 2A (Homo sapiens)
Unit tag: nM
Obs value: 39.8
//
Record smiles: Cc1cc2c(cc1Cl)N(C(=O)Nc1ccc(OCc3ccncc3)nc1)CC2
Subject of test: 5-hydroxytryptamine receptor 2A (Homo sapiens)
Unit tag: nM
Obs value: 79.4

P. Cc1cc2c(cc1C(F)(F)F)N(C(=O)Nc1ccc(CCc3ccccn3)nc1)CC2
Q. O=C(Nc1ccc(OCc2ccccn2)nc1)N1CCc2cc(C(F)(F)F)ccc21
R. Cc1cc2c(cc1C(F)(F)F)N(C(=O)Nc1ccc(OCCc3ccccn3)nc1)CC2
Input line: Which order do these items take when sorted by rising Ki? List them. // list labels; follow requested order
Output line: P, R, Q

* * *

Reported ED50 values follow for various compounds
- Test system: Rattus norvegicus
- Assay name: Dose required to reverse mCPP induced hypolocomotion by 50% at 7 mg/kg, ip administration 30 min pretest in rat
- Type: functional
- Recorded conditions: po, 0.5 h, read-out: ID50 (the source's name)
Supply the numeric figure in mg/kg, leaving out any unit text.

Example compounds with recorded ED50:
Record smiles: Cc1cc2c(cc1C(F)(F)F)N(C(=O)Nc1cnc(OCc3ccccn3)c(C)c1)CC2
Unit tag: mg/kg
ED50: 0.3

Record smiles: O=C(Nc1ccc(OCc2ccccn2)nc1)N1CCc2cc(Br)ccc21
Unit tag: mg/kg
ED50: 2.4

Record smiles: Cc1cc2c(cc1C(F)(F)F)N(C(=O)Nc1ccc(OCc3ccccn3)nc1)CC2
Unit tag: mg/kg
ED50: 1

Shifting focus to the compound that follows.
Input line: Request: ED50, test system Rattus norvegicus, entry O=C(Nc1ccc(OCc2ccccn2)nc1)N1CCc2cc(C(F)(F)F)ccc21
Output line: 1.6

* * *

This document collects Ki values reported for 5-hydroxytryptamine receptor 2B (Homo sapiens).
Experimental readout: Ki (nM)

Please review the entries below; each comes with its answer.
Record smiles: Cc1cc2c(cc1C(F)(F)F)N(C(=O)Nc1ccc(OCc3ccccn3)nn1)CC2
Unit tag: nM
Obs value: 79.4
//
Record smiles: Cc1cc2c(cc1Cl)N(C(=O)Nc1ccc(OCc3ccccn3)nc1)CC2
Unit tag: nM
Obs value: 100

A. O=C(Nc1ccc(OCc2ccccn2)nc1)N1CCc2cc(Cl)ccc21
B. Cc1cc2c(cc1C(F)(F)F)N(C(=O)Nc1ccc(OCc3ncccc3C)nc1)CC2
C. Cc1cccc(COc2ccc(NC(=O)N3CCc4cc(C)c(C(F)(F)F)cc43)cn2)n1
D. O=C(Nc1ccc(OCc2ccccn2)nc1)N1CCc2cc(C(F)(F)F)ccc21
E. Cc1cc2c(cc1C(F)(F)F)N(C(=O)Nc1cnc(OCc3ccccn3)c(C)c1)CC2
Input line: Arrange by Ki, high to low. Response field: labels, in requested order.
Output line: A, D, C, B, E
(A: 1000 nM, D: 398 nM, C: 25.1 nM, B: 15.8 nM, E: 7.94 nM)

a. Cc1cc2c(cc1C(F)(F)F)N(C(=O)Nc1ccc(OCc3ccccn3)nc1)CC2
b. O=C(Nc1ccc(OCc2ccccn2)nc1)N1CCc2cc(Br)ccc21
Input line: Lab log: flag the item ( a or b ) with the smaller Ki figure. Mark your selection by writing its label.
Output line: a
(a: 31.6 nM, b: 501 nM)

P. Cc1cc2c(cc1Cl)N(C(=O)Nc1ccc(OCc3nccn3C)nc1)CC2
Q. Cc1cc2c(cc1C(F)(F)F)N(C(=O)Nc1ccc(CCc3ccccn3)nc1)CC2
R. Cc1cc2c(cc1C(F)(F)F)N(C(=O)Nc1ccc(COc3ccccn3)nc1)CC2
Input line: Form: Sort by [Ki] Order [ ascending ] List labels; respect the requested ordering.
Output line: P, Q, R
(P: 12.6 nM, Q: 20 nM, R: 200 nM)
